Assayed Target: DLK (Homo sapiens, UniProt Q12852)
Sequence (Q12852 1-520): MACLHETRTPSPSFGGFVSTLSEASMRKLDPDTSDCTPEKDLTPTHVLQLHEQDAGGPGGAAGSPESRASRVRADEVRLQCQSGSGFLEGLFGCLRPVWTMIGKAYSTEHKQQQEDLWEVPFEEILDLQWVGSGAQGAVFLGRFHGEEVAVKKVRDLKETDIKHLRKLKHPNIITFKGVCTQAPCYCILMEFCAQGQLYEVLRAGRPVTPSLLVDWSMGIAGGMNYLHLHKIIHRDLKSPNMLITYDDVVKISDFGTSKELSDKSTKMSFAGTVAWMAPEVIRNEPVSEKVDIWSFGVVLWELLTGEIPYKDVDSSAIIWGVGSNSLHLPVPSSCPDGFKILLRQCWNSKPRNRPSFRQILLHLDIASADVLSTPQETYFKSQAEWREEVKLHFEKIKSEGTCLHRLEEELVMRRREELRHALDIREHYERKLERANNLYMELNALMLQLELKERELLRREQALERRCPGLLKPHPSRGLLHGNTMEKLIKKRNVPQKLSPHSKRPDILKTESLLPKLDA
Experimental Conditions: read-out: DLK (Ki) μM; TR-FRET; 5 nM GST-tagged DLK (catalytic domain aa 1-520), 40 nM HIS-MKK4 K131M substrate, 30 μM ATP, 60 minutes
Quantity Kind: Ki (µM)

Before answering, review these 6 worked examples.
[[record]]
compound = "CC(=O)N1CC(c2cc(-c3cnc4[nH]cc(C(F)(F)F)c4c3)nn2C)C1 [Compound 11]"
quantity_kind = "Ki"
result = 0.034

[[record]]
compound = "CC(=O)N1C[C@@H]2[C@H](C1)[C@H]2c1cc(-c2cnc(N)c(C(F)(F)F)c2)nn1C(C)C [Compound 115]"
quantity_kind = "Ki"
result = 0.0056

[[record]]
compound = "CC(C)Oc1cc(-c2cc([C@H]3[C@@H]4CN(C5COC5)C[C@@H]43)n(C3CCCC3)n2)cnc1N [Compound 156]"
quantity_kind = "Ki"
result = 0.032

[[record]]
compound = "Nc1ncc(-c2cc([C@H]3[C@@H]4CN(C5COC5)C[C@@H]43)n(C3CCC3)n2)cc1Cl [Compound 147]"
quantity_kind = "Ki"
result = 0.018

[[record]]
compound = "COCCN1C[C@@H]2[C@H](C1)[C@H]2c1cc(-c2cnc(N)c(Cl)c2)nn1CC1CC1 [Compound 123]"
quantity_kind = "Ki"
result = 0.027

[[record]]
compound = "Nc1ncc(-c2cc(C3CCOC3)n(C3CC(F)(F)C3)n2)cc1Cl (centres unmarked) [Compound 25]"
quantity_kind = "Ki"
result = 0.55


[I] Nc1ncc(-c2cc([C@H]3[C@@H]4CN(CC(F)(F)F)C[C@@H]43)n(C3COC3)n2)cc1Cl [Compound 111]
[II] CC(C)n1nc(-c2cnc(N)c(C(F)(F)F)c2)cc1C1CCN(CC#N)CC1 [Compound 52]
Look at I and II . Which one has the lower recorded Ki number? Use the label to indicate which entry you chose.
II
